Origin of values: ChEMBL document CHEMBL2057108

AUC(0-t) by entry:
assay: AUC (0 to t) in Sprague-Dawley rat at 5 mg/kg, po; format: ADME, organism-based; set-up: dose 5 mg/kg, route oral; conditions: plasma
ENDPOINT_NAME: AUC(0-t) (ng·h/mL)

smiles_input=CC(C)n1nc(C(=O)N[C@H]2C[C@H]3CC[C@@H](C2)N3CCN2CCN(S(C)(=O)=O)CC2)c2ccccc21 test_value=260
smiles_input=CC(C)n1nc(C(=O)N[C@H]2C[C@H]3CC[C@@H](C2)N3C[C@@H](O)CN2CCN(S(C)(=O)=O)CC2)c2ccccc21 test_value=240
smiles_input=CC(=O)N1CCN(CCN2[C@@H]3CC[C@H]2C[C@@H](NC(=O)c2nn(C(C)C)c4ccccc24)C3)CC1 test_value=730
